# measured_on: DCN1 (DCUND1) protein PONY domain (Homo sapiens (Human))
# Sequence (Q96GG9 60-248): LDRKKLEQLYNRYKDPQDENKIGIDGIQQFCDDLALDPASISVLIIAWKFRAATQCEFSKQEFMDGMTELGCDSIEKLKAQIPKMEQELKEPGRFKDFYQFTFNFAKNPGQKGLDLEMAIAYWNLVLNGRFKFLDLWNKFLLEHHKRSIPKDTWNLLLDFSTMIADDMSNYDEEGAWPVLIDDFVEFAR
# test_details: TR-FRET assay (binding to DCN-1, displacement of FAM-labeled probe)
# condition_notes: 24 hr after treatment with compound; read-out: TR FRET IC50 24 hr
observation_type: IC50

| compound | result |
| --- | --- |
| C/C=C(\CN(C)C1COC1)C(=O)Nc1cccc([C@@H]2c3cnn(-c4ccccc4)c3N(CC)C(=O)[C@H]2NC(=O)c2nccc(C(F)(F)F)n2)c1 | ≤ 200 nM |
| CCN1C(=O)[C@@H](NC(=O)c2cccc(C(F)(F)F)c2)[C@H](c2ccccc2CNC(=O)/C=C/CN(C)C)c2cnn(-c3ccccc3)c21 (racemic) | 1000 to 3000 nM |
| C/C=C(\CN1CCOCC1)C(=O)N(C)Cc1cccc([C@@H]2c3cnn(-c4ccccc4)c3N(CC)C(=O)[C@H]2NC(=O)c2nccc(C(F)(F)F)n2)c1 | 1000 to 3000 nM |

Could you tell me IC50 for each of these compounds? They are listed below.
1. C=C(CC(=O)OC)C(=O)NCc1cccc([C@@H]2c3cnn(-c4ccccc4)c3N(CC)C(=O)[C@H]2NC(=O)c2cccc(C(F)(F)F)c2)c1
2. C=C(CN1CCOCC1)C(=O)Nc1cccc([C@@H]2c3c(C)nn(-c4ccccc4)c3N(CC)C(=O)[C@H]2NC(=O)c2cccc(C(F)(F)F)c2)c1

*A*
≤ 200 nM
≤ 200 nM

----------
Kindly state IC50 for each of the entries shown.
# measured_on: DCN1 (DCUND1) protein PONY domain (Homo sapiens (Human))
# test_details: TR-FRET assay (binding to DCN-1, displacement of FAM-labeled probe)
# condition_notes: TR FRET IC50 1 hr (nM), 1 hr after treatment with compound

| compound | IC50 |
| --- | --- |
| C/C=C(/C)S(=O)(=O)Nc1cccc([C@H]2c3c(C)nn(-c4ccccc4)c3N(CC)C(=O)[C@@H]2NC(=O)c2cccc(C(F)(F)F)c2)c1 (racemic) | 1000 to 3000 nM |

Could you tell me IC50 for each of these compounds? They are listed below.
1. C/C=C(\CN1CCC12COC2)C(=O)Nc1cccc([C@@H]2c3cnn(-c4ccccc4)c3N(CC)C(=O)[C@H]2NC(=O)c2nccc(C(F)(F)F)n2)c1
2. CCN1C(=O)[C@@H](NC(=O)c2cccc(C(F)(F)F)c2)[C@@H](c2cccc(NC(=O)C3=CCN(C)C3)c2)c2c(C)nn(-c3ccccc3)c21 (racemic)
3. C=C(CN1CCOCC1)C(=O)NCc1cccc([C@H]2c3c(C)nn(-c4ccccc4)c3N(CC)C(=O)[C@@H]2NC(=O)c2cccc(C(F)(F)F)c2)c1
4. CCN1C(=O)[C@@H](NC(=O)c2cccc(C(F)(F)F)c2)[C@H](c2ccc(F)c(NC(=O)/C=C/CN(C)C)c2)c2cnn(-c3ccccc3)c21
5. C=CC(=O)NCc1ccccc1[C@@H]1c2cnn(-c3ccccc3)c2N(CC)C(=O)[C@H]1NC(=O)c1cccc(C(F)(F)F)c1 (racemic)
6. CCN1C(=O)[C@H](NC(=O)c2cccc(C(F)(F)F)c2)[C@@H](c2cccc(CNC(=O)/C=C(\C)C(=O)OC)c2)c2cnn(-c3ccccc3)c21
7. C/C=C(\CN(C)C1COC1)C(=O)NCc1cccc([C@@H]2c3cnn(-c4ccccc4)c3N(CC)C(=O)[C@H]2NC(=O)c2csc(C(F)(F)F)n2)c1
8. CCN1C(=O)[C@@H](NC(=O)c2cccc(C(F)(F)F)c2)[C@H](c2cccc(NC(=O)/C=C/CN(C)C)c2F)c2cnn(-c3ccccc3)c21 (racemic)

*A*
1: 1000 to 3000 nM; 2: 1000 to 3000 nM; 3: 1000 to 3000 nM; 4: 1000 to 3000 nM; 5: 1000 to 3000 nM; 6: 1000 to 3000 nM; 7: 200 to 1000 nM; 8: 200 to 1000 nM

Could you tell me IC50 for each of these compounds? They are listed below.
1. CCN1C(=O)[C@@H](NC(=O)c2nccc(C(F)(F)F)n2)[C@H](c2cccc(NC(=O)C3=CCN(C4COC4)C3)c2)c2c(C)nn(-c3ccccc3)c21
2. CCN1C(=O)[C@@H](NC(=O)c2cccc(C(F)(F)F)c2)[C@H](c2cccc(CNC(=O)C3=C(C(=O)OC)CC3)c2)c2cnn(-c3ccccc3)c21

*A*
1. 1000 to 3000 nM
2. 1000 to 3000 nM
